tested on: HEK-293T; experiment: Multiplex assay against HEK293T; assay type: toxicity, cell-based; details: human, 12 h, 10 µM, compound concentration 10 uM, replicate 2
metric: Total Cell Count
Returns: the value as a bare number; no unit string appended.

Reported Total Cell Count for CC(C)NCC(O)COc1ccc(CCOCC2CC2)cc1.Cl (configuration not stated) [BETAXOLOL HYDROCHLORIDE] : what is it?
259

What do you have for Cc1csc2c(N[C@@H](C)CN3CCN(S(=O)(=O)c4ccc(Cl)c(Cl)c4)CC3)ncnc12 ?
206

Subsequent entry: C=CC(=O)Nc1ccc2ncnc(Nc3ccc(OCc4cccc(F)c4)c(Cl)c3)c2c1.Cc1ccc(S(=O)(=O)O)cc1
184

Param item: CC[C@H](C)C(=O)O[C@H]1C[C@@H](C)C=C2C=C[C@H](C)[C@H](CC[C@@H]3C[C@@H](O)CC(=O)O3)[C@H]21 [LOVASTATIN]
266

And CN(C)C(=O)N[C@H]1CC[C@H](CCN2CCN(c3cccc(Cl)c3Cl)CC2)CC1.Cl [CARIPRAZINE HYDROCHLORIDE] ?
210

Please answer likewise for CN(C)CC#Cc1ccc(OCCCc2sc(N3CCc4cccc(C(=O)Nc5nc6ccccc6s5)c4C3)nc2C(=O)O)c(F)c1 [A-1155463]
263

Thanks! And C=CC(=O)Nc1cc2c(Nc3ccc(F)c(Cl)c3)ncnc2cc1OCCCN1CCOCC1.Cl.Cl [CANERTINIB DIHYDROCHLORIDE] ?
1567

---

test system: U2OS; test: Multiplex assay against U2OS; type: toxicity, cell-based; details: human, 48 h, 10 µM, compound concentration 10 uM, replicate 1
metric: Population Pyknosed Nuclei (%)
Numbers only; they are read as %.

Data request, read-out Population Pyknosed Nuclei (%), for CNCc1ccccc1-c1csc([C@H](C)Nc2nc(C)nc3cc(OC)c(OC)cc23)c1 [BAY-294]
62

Do the same for CC(C)(O)CNc1ncc(-c2ccnc(Nc3ccnc(Cl)c3)n2)c(CC2CC2)n1 please
51

Param item: CC(C)NCC(O)COc1ccc(CCOCC2CC2)cc1.Cl (centres undefined) [BETAXOLOL HYDROCHLORIDE]
12

Next compound up: CN(C)CC#Cc1ccc(OCCCc2sc(N3CCc4cccc(C(=O)Nc5nc6ccccc6s5)c4C3)nc2C(=O)O)c(F)c1 [A-1155463]
40

---

test system: Fibroblast; experiment: Multiplex assay against human fibroblast; format: toxicity, cell-based; settings: 12 h, 10 µM, compound concentration 10 uM, replicate 1
I'd appreciate it if you could supply Population Mitochondria Different-Phenotype (%) values for the items below.
The reply should be a number in %, with the unit left off.

Name the reported Population Mitochondria Different-Phenotype (%) value associated with the compound Cc1[nH]c(/C=C2\C(=O)Nc3ccc(S(=O)(=O)N(C)c4cccc(Cl)c4)cc32)c(C)c1C(=O)N1CCN(C)CC1
13

Here is the next compound: CN1CCC[C@@H]1CCO[C@](C)(c1ccccc1)c1ccc(Cl)cc1.O=C(O)/C=C/C(=O)O [CLEMASTINE FUMARATE]
49

// repeat for CN(C)CC#Cc1ccc(OCCCc2sc(N3CCc4cccc(C(=O)Nc5nc6ccccc6s5)c4C3)nc2C(=O)O)c(F)c1 and report
4

Same question, CC(C)(O)CNc1ncc(-c2ccnc(Nc3ccnc(Cl)c3)n2)c(CC2CC2)n1 this time
45

Would you kindly repeat that for CN1C(=O)c2sccc2N(C)c2nc(Nc3ccc(S(N)(=O)=O)cc3)ncc21 ?
7

Param item: Cc1cc(C)cc(-c2cnc3cc(Cl)c(-c4cccc(O)c4)cc3c2OCCCN)c1
7

For Cn1cc(-c2[nH]c3cc(NC(=O)[C@H](N)C4CCCCC4)cc4c3c2C=NNC4=O)cn1 then?
4

Follow-up entry: CN1CCCC(n2nc(Cc3ccc(Cl)cc3)c3ccccc3c2=O)CC1.Cl (stereo unspecified) [AZELASTINE HYDROCHLORIDE]
55

Subsequent entry: c1cn2cc(-c3ccc4cn[nH]c4c3)nc(Nc3ccc(N4CCOCC4)cc3)c2n1
4

Same again, this time with C[C@@H](NCCCc1cccc(C(F)(F)F)c1)c1cccc2ccccc12.Cl [CINACALCET HYDROCHLORIDE]
73

Same question, CNc1nc(NCc2ccc(NS(C)(=O)=O)cc2Cl)cc(-c2ccccn2)n1 this time
15

What would you report for Cc1nc(-c2cn3c(n2)-c2ccc(-c4cnn(C(C)(C)C(N)=O)c4)cc2OCC3)n(C(C)C)n1 ?
2

What about this compound? Cl.N#Cc1ccc2[nH]cc(CCCCN3CCN(c4ccc5oc(C(N)=O)cc5c4)CC3)c2c1 [VILAZODONE HYDROCHLORIDE]
21

Same thing, different compound: CN1CCN(c2ccc(OC(F)(F)F)c(Nc3ncc4c(n3)-c3c(c(C(N)=O)nn3CCO)CC4)c2)CC1
9

Repeat for the following compound: C=CC(=O)Nc1ccc2ncnc(Nc3ccc(OCc4cccc(F)c4)c(Cl)c3)c2c1.Cc1ccc(S(=O)(=O)O)cc1
7

Cc1nc(Nc2n[nH]c3c2CN(C(=O)N[C@H](CN(C)C)c2ccccc2)C3(C)C)c2sccc2n1 ?
10
